System: HCT-15 colon
assay_protocol: NCI-60 one-dose screen, 48 h
condition_details: 10 µM unless noted
The panel holds about 83,000 compounds, 20% with a hit somewhere; the sample as a whole holds those more often. The source made the active and inactive calls. Rule for the calls: active = growth percent below 10; inactive = the rest.
Allowed answers: class 1 = active, class 0 = inactive

Worked set:
COc1ccc(-c2ccc3c(c2)sc2nc(-c4ccc(F)cc4)cn23)cc1
class 0
Cc1ccc(C(=NN=C(N)N)c2ccc(C)cc2)cc1
class 0
O=C1/C(=C\c2cccnc2)SC(=S)N1CCc1ccc(O)cc1
class 0
CCN1C(=O)N(CC)C2C1NN=c1s/c(=C\c3cccs3)c(=O)n12 (configuration not stated)
class 0
COc1ccc(NC(=O)CSc2nc(C)c(C(C)=O)n2-c2ccc([N+](=O)[O-])cc2)cc1
class 0

Prompt: Test call for this compound, please: `O=C(N=c1oc2ccccc2cc1-c1cc2ccccc2[nH]1)c1ccc(Cl)cc1`
Completion: class 0

Prompt: Test call for this compound, please: O=C(c1ccccc1)N1N=C(c2ccccc2)CC1c1nnc2n(Cc3ccccc3)c(=O)c3c4c(sc3n12)CCCC4 (configuration not stated)
Completion: class 0

Prompt: Test call for this compound, please: `CCOc1c(C#N)nnc2c(C#N)c(NC(=O)c3ccccc3)nn12`
Completion: class 0

Prompt: Test call for this compound, please: `C=C1C(=O)O[C@H]2[C@H]1CC/C(COC(=O)C(=O)c1c[nH]c3ccc(OC)cc13)=C\CC[C@@]1(C)O[C@@H]21`
Completion: class 1

Prompt: Test call for this compound, please: `COc1cc(N2C(=O)c3nccnc3C2=O)cc(OC)c1OC`
Completion: class 0

Prompt: Test call for this compound, please: `COc1ccc(C(=O)COc2ccc(/C=C3\Oc4ccccc4C3=O)cc2)cc1`
Completion: class 0

Prompt: Test call for this compound, please: CC1(C)CC(=O)C2=C(C1)N(c1ccc(OC(F)(F)F)cc1)C(N)=C(C#N)C2c1ccc(Cl)cc1 (configuration not stated)
Completion: class 0
